System: NCI-H1688
Assay method text: inhibition of cell viability relative to untreated control (fraction); higher = stronger growth inhibition, active = 0.5 or more
Assay context: 30 µM; 24 h
Where a name gives a salt, the structure may show the parent alone.
Note to self: inhibition of cell viability under 0.2 means condition met, ties and anything higher get condition not met.

See these solved cases before continuing.
CCC1(O)C(=O)OCc2c1cc1n(c2=O)Cc2cc3ccccc3nc2-1 (single isomer, unassigned; (+)) [(+)-Camptothecin]: condition not met
CC(=O)OCC1=C(C(=O)O)N2C(=O)[C@@H](N)[C@H]2SC1: condition met
C[C@]12CC[C@H](O)CC1=CC[C@@H]1[C@@H]2CC[C@]2(C)C(=O)CC[C@@H]12 [Dehydroepiandrosterone]: condition met
C=C[C@H]1CN2CC[C@H]1C[C@@H]2[C@@H](O)c1ccnc2ccccc12: condition met
CC1=CC(=O)c2c(O)cccc2C1=O: condition not met
CCC(=O)O[C@H]1CC[C@H]2[C@@H]3CCC4=CC(=O)CC[C@]4(C)[C@H]3CC[C@]12C [Testosterone propionate]: condition met

Problem: For the compound CCC1=CC2CN3CCc4c([nH]c5ccccc45)C(C(=O)OC)(C2)C13 (stereo not drawn) [Catharanthine sulfate] , is inhibition of cell viability under 0.2?
condition met
